metric.name: melting point

[
  {
    "molecule": "CSc1nc2ccnn2c(Nc2cccnc2)c1C#N [compound 178]",
    "melting point": "214 to 215 °C"
  },
  {
    "molecule": "CSc1nc2ccnn2c(NCc2ccccc2)c1S(C)(=O)=O [compound 61]",
    "melting point": "163 to 164 °C"
  },
  {
    "molecule": "CCC(CC)Sc1nc2ccnn2c(N)c1C#N [compound 113]",
    "melting point": "242 to 243.8 °C"
  },
  {
    "molecule": "CSc1nc2cccn2c(NC2CCCCC2)c1C#N [compound 109]",
    "melting point": "117 to 118 °C"
  },
  {
    "molecule": "CSc1nc2ccnn2c(Nc2ccc(C(N)=O)cc2)c1C#N [compound 197]",
    "melting point": "> 280 °C"
  }
]

# batch: return melting point for each of the 8 molecules below
1. CSc1nc2ccnn2c(NCCC#N)c1C#N [compound 82]
2. C=CCSc1nc2ccnn2c(NCc2ccncc2)c1C#N [compound 76]
3. COC(=O)c1c(SC)nc2ccnn2c1NOC1OCCO1 [compound 133]
4. CCSc1nc2ccnn2c(NCc2ccccc2)c1C#N [compound 67]
5. CSc1nc(NCc2ccccc2)n2nccc2n1 [compound 39]
6. CSc1nc2ccnn2c(Nc2ccc([N+](=O)[O-])cc2)c1C#N [compound 200]
7. CSc1nc2c(Br)cnn2c(N)c1C#N [compound 54]
8. CSc1nc2ccnn2c(NCC2CCCO2)c1C#N (stereo not drawn) [compound 212]

### Response
["188 °C", "178.8 to 179.8 °C", "126.5 to 127.5 °C", "112 to 113.4 °C", "133 °C", "> 270 °C", "> 250 °C", "116 to 120 °C"]

# batch: return melting point for each of the 5 molecules below
1. CSc1nc2cc(C)nn2c(NCc2ccncc2)c1C#N [compound 188]
2. CCOC(=O)c1c(SC)nc2ccnn2c1NCc1ccccc1 [compound 222]
3. CSc1nc2ccnn2c(Nc2ccc(C#N)cc2)c1C#N [compound 168]
4. CSc1nc2ccnn2c(Nc2cc(C)ns2)c1C#N [compound 177]
5. CSc1nc2cc(-c3ccccc3)nn2c(NCc2ccccc2)c1C#N [compound 46]

### Response
1: 190 to 191 °C; 2: 114 to 115 °C; 3: 280 to 281 °C; 4: 175 to 176 °C; 5: 172 °C

# batch: return melting point for each of the 6 molecules below
1. CSc1nc2ccnn2c(Nc2ccccc2)c1C#N [compound 80]
2. COc1cccc(Nc2c(C#N)c(SC)nc3cc(C)nn23)c1 [compound 192]
3. CSc1nc2nc(SC)c(C#N)c(N)n2n1 [compound 35]
4. N#Cc1c(-c2ccccc2)nc2ccnn2c1N [compound 85]
5. COc1ccc(CNc2c(C#N)c(SC)nc3ccnn23)cc1 [compound 56]
6. CSc1nc2ccnn2c(Nc2cccc(C#N)c2)c1C(=O)O [compound 134]

### Response
1. 195 to 196 °C
2. 142 to 143 °C
3. > 250 °C
4. > 250 °C
5. 137 °C
6. 162.5 to 164.5 °C

# batch: return melting point for each of the 6 molecules below
1. CSc1nc2cc(-c3ccccc3)nn2c(NCc2ccncc2)c1C#N [compound 48]
2. CSc1nc2ccnn2c(Nc2ccccc2C)c1C#N [compound 203]
3. CSc1nc2ccnn2c(NCCc2ccccc2)c1C#N [compound 12]
4. N#Cc1c(SC2CCCC2)nc2ccnn2c1N [compound 103]
5. C#CCOc1c(C#N)c(SC)nc2ccnn12 [compound 53]
6. CSc1nc2ccnn2c(Nc2cccc(Cl)c2)c1C#N [compound 162]

### Response
1: 232 °C; 2: 192 to 194 °C; 3: 107 °C; 4: 270.5 to 271.3 °C; 5: 183 °C; 6: 161 to 162 °C

# batch: return melting point for each of the 5 molecules below
1. CSc1nc2ccnn2c(NC2CCCC2)c1[N+](=O)[O-] [compound 127]
2. CSc1nc2ccnn2c(Nc2ccc(N(C)C)cc2)c1C#N [compound 202]
3. N#Cc1c(-c2ccccc2)nc2ccnn2c1NCc1ccncc1 [compound 89]
4. CSc1nc2ccnn2c(N=Cc2ccccc2)c1C#N [compound 34]
5. COC(=O)c1c(SC)nc2ccnn2c1O [compound 155]

### Response
1: 132 to 134 °C; 2: 250 to 252 °C; 3: 199 to 201 °C; 4: 188 °C; 5: 192 to 194 °C

# batch: return melting point for each of the 2 molecules below
1. COCSc1nc2ccnn2c(NCc2ccccc2)c1C#N [compound 107]
2. C#CCSc1nc2ccnn2c(N)c1C#N [compound 94]

### Response
1. 137.4 to 141.4 °C
2. 206 °C (dec.)

# batch: return melting point for each of the 5 molecules below
1. CSc1nc2ccnn2c(NOCC2CCCCO2)c1C#N (stereo not drawn) [compound 209]
2. CSc1nc2ccnn2c(NOCC2CCCO2)c1C#N (stereo not drawn) [compound 213]
3. CCOC(=O)c1c(SC)nc2ccnn2c1Nc1ccc([N+](=O)[O-])cc1 [compound 226]
4. CSc1nc2ccnn2c(N(C)C)c1C#N [compound 17]
5. CSc1nc2ccnn2c(Nc2ccc(C(C)=O)cc2)c1C#N [compound 199]

### Response
161 °C
143 to 144 °C
170 °C
144 °C
260 to 261 °C
